Listed below: inhibition values for each entry.
Biological target: RAC-alpha serine/threonine-protein kinase (Homo sapiens, UniProt P31749)
Sequence (P31749 whole entry): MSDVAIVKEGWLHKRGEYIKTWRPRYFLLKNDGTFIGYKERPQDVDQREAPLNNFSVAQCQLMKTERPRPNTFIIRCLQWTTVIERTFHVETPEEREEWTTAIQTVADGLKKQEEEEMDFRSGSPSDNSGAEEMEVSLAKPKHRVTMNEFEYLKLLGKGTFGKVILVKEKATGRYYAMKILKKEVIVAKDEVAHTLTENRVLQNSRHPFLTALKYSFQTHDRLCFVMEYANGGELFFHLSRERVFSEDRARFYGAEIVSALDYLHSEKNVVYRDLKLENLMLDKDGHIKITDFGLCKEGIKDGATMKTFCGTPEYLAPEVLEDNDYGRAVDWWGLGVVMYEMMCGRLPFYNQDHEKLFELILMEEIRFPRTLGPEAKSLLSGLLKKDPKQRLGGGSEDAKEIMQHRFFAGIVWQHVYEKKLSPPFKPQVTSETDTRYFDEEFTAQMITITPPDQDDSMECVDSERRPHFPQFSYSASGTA
Assay: Inhibition of Akt using RPRTSSF peptide and [gamma32]ATP at 5 uM by cell-free radioactive assay relative to control
*1 amine or outer side, *2 acyl side, *3 side chain or, on linkers, in order; H or OH if unused. Where a SMILES comes first, the peptide text is derived from it. Bridges are numbered along the chain shown (N, C = ends). [ ]: non-standard residue; d: D form. NGly(3-aminopropyl) = O=C(CN(CCCN[*:3])[*:1])[*:2]; N(2-Aminoethyl)Gly = O=C(CN(CCN[*:3])[*:1])[*:2]; hLeu = CC(C)CC[C@H](N)C(=O)O; Nva = CCC[C@H](N)C(=O)O; Dap = NC[C@H](N)C(=O)O; CO = O=C([*:1])[*:2]; Nlys = NCCCCNCC(=O)O

Use the examples below as a reference point.
>>> observed_value("CCC[C@@H]1NC(=O)[C@H](CCCNC(=N)N)NC(=O)CN(C(=O)[C@@H](N)CCCNC(=N)N)CCNC(=O)NCCCCN(CC(N)=O)C(=O)[C@H](CCC(C)C)NC(=O)[C@H](CN)NC(=O)[C@H](Cc2ccc(O)cc2)NC1=O (H-R[N(2-Aminoethyl)Gly]R[Nva]Y[Dap][hLeu][Nlys]-NH2; linker 2-8 via CO)")
"98%"
>>> observed_value("CCC[C@@H]1NC(=O)[C@H](CCCNC(=N)N)NC(=O)CN(C(=O)[C@@H](N)CCCNC(=N)N)CCNC(=O)NCCCN(CC(N)=O)C(=O)[C@H](CCC(C)C)NC(=O)[C@H](CN)NC(=O)[C@H](Cc2ccc(O)cc2)NC1=O (H-R[N(2-Aminoethyl)Gly]R[Nva]Y[Dap][hLeu][NGly(3-aminopropyl)]-NH2; linker 2-8 via CO)")
"98%"

Q: Which inhibition is reported with RAC-alpha serine/threonine-protein kinase (Homo sapiens, UniProt P31749) for this entry: `CCC[C@H](NC(=O)[C@H](CCCNC(=N)N)NC(=O)[C@H](Cc1ccccc1)NC(=O)[C@@H](N)CCCNC(=N)N)C(=O)N[C@@H](Cc1ccc(O)cc1)C(=O)N[C@@H](CN)C(=O)N[C@@H](CCC(C)C)C(N)=O` ?
A: 60%
